Test: qHTS Assay for Lipid Storage Modulators in Drosophila S3 Cells
Conditions: BODIPY lipid droplet fluorescence, 18-24 h, cells fed with added oleic acid; series mostly up to 46.1 µM
The campaign covered roughly 320,000 compounds. About 2,100 (0.66%) were called active. Another 53% or so got no clear call; they are omitted. Calls come from the whole dose curve; as a rule, active = well fitted inhibition curve with a large enough effect in the signal ratio, with a control signal flat (not every such curve was filed as active); inconclusive = small, poorly fitted or top-dose-only effect, or effect the other way, or a change in a side signal; inactive = flat fitted curve, though single readings scatter; the % refers to the signal ratio. The list comes from a sample in which actives are over-represented; it also holds close analogues and randomly drawn compounds.
Outcomes: 1 for active, 0 for inactive

compound=O=C(c1ccccc1)N1CCN(C2CCCCC2)CC1 label_class=0
compound=O=C(c1ccccc1)N1CCN(C2CCCCCC2)CC1 label_class=1
compound=COc1cccc(NC(=O)CCNC(=O)c2ccccc2Cl)c1 label_class=0
compound="O=C1NCCN(Cc2ccc(Cl)c(F)c2)C1CC(=O)N1CCCCO1 (stereo not drawn)" label_class=0
compound=Cn1c2ccccc2c(=O)c2c(=O)n(-c3ccccc3)c(-c3ccc(C(C)(C)C)cc3)nc21 label_class=0
compound=CCN(CC)CC(=O)Nc1ccc(-c2nc3cc(NC(=O)CN(CC)CC)ccc3o2)cc1 label_class=0
compound=Cc1ccccc1-n1c(C)n[nH]c1=S label_class=0
compound="CC1CCCCN1S(=O)(=O)c1ccc2c(c1)CCN2C(=O)C1CC1 (stereo not drawn)" label_class=1
compound=CCN(C(=O)CCNC(=O)Cn1cnc2ccccc2c1=O)c1ccccc1F label_class=0
compound=CCCC(=O)Nc1cccc(Oc2ccc3c(c2)C(=O)NC3=O)c1 label_class=1
compound="CCC1CCCCN1C(=O)CNCC1CCCO1 (stereo not drawn)" label_class=0
compound=COc1ccc2c(c1)c(C(=O)N/N=C/c1ccc(Br)cc1)c(C)n2C label_class=0
compound="Cc1noc(C)c1CCC(=O)NC1CCCN(Cc2ccc(CC(C)C)cc2)C1 (stereo not drawn)" label_class=0
compound=CCc1ccc2oc(-c3ccc(NC(C)=O)cc3)nc2c1 label_class=1
compound=O=C1NC(=S)N/C1=C\c1ccc(N2CCOCC2)cc1 label_class=0
compound=Cc1cc(O)c(C(C)C)cc1NC1=NS(=O)(=O)c2ccccc21 label_class=0
compound=O=C(C1CCC1)N1CCCc2cc(S(=O)(=O)N3CCN(c4ccccc4)CC3)ccc21 label_class=1
compound=CCC(=O)Nc1ccc(Oc2ccc3c(c2)C(=O)NC3=O)cc1 label_class=0
compound=Cc1ccc(S(=O)(=O)NNC2=NS(=O)(=O)c3ccccc32)c(C)c1 label_class=0
compound="COCCN(C(=O)CNC(=O)c1cccs1)C(C(=O)NC1CCCCC1)c1ccco1 (stereo not drawn)" label_class=0
compound=O=C(C1CCC1)N1CCc2cc(S(=O)(=O)N3CCN(c4ccccn4)CC3)ccc21 label_class=0
compound=Cc1ccc(C(=O)NCCNC(=O)c2ccco2)cc1C label_class=0
compound=COc1ccc(Cl)cc1NC(=O)NCC1CCN(Cc2cc(C)ccc2C)CC1 label_class=0

###

Assay: qHTS Assay for Lipid Storage Modulators in Drosophila S3 Cells
Conditions: BODIPY lipid droplet fluorescence, 18-24 h, cells fed with added oleic acid; series mostly up to 46.1 µM
In all, about 320,000 compounds went through this assay and about 2,100 (0.66%) were called active. Inconclusive results (about 53%) are left out. Calls follow the shape of the dose curve; as a rule, active = well fitted inhibition curve with a large enough effect in the signal ratio, with a control signal flat (not every such curve was filed as active); inconclusive = small, poorly fitted or top-dose-only effect, or effect the other way, or a change in a side signal; inactive = flat fitted curve, though single readings scatter; the % refers to the signal ratio. For the sample, actives were picked, then their nearest neighbours and some compounds at random.
Outcomes: active, inactive

compound="O=C1CC(c2ccc3c(c2)OCCO3)Oc2ccccc21 (stereo unspecified)" label_class=inactive
compound=COc1ccc(OC)c(NC2=NC3(CCCC3)N=C(N)N2)c1 label_class=inactive
compound="CCC(OC(=O)c1nsc(Cl)c1Cl)C(=O)NCc1cccs1 (stereo unspecified)" label_class=inactive
compound=CC(C)(C)c1ccc(/C=N/NC(=O)C2CCCC2)cc1 label_class=inactive
compound="CCCCc1cc(=O)oc2cc(OCC(=O)NC(Cc3c[nH]c4ccc(O)cc34)C(=O)O)ccc12 (stereo unspecified)" label_class=inactive
compound=COCCSc1nnc(NC(=O)COC)s1 label_class=active
compound=CCC(=O)Nc1nnc(SCCOC)s1 label_class=inactive
compound="CCC(C)c1ccccc1OCC(=O)NN1C(=O)c2ccccc2C1=O (stereo unspecified)" label_class=inactive
compound=CC1(C)CC(=O)C=C(Nc2ccc(S(N)(=O)=O)cc2)C1 label_class=inactive
compound=Fc1ccc(-c2ccc(/C=N\n3cnnc3)o2)cc1Cl label_class=inactive
compound="CCCOC(=O)c1ccc(OCC(O)CN2CCN(C(=O)c3ccccc3)CC2)cc1 (stereo unspecified)" label_class=inactive
compound="COc1ccccc1N1CCN(CC(C)N(C(=O)C2CCCCC2)c2ccccn2)CC1 (stereo unspecified)" label_class=inactive
compound=Cc1cccc(OCC(=O)Nc2ccc3c(c2)nc(CCN2CCCCC2)n3C)c1 label_class=inactive
compound="CCCS(=O)(=O)N1CCCC(C(=O)NCCc2ccccc2)C1 (stereo unspecified)" label_class=inactive
compound=CC(C)(C)c1ccc(OC(=O)Cn2c(C(F)(F)F)nc3ccccc32)cc1 label_class=active
compound=CC(=O)Cn1c(C(F)(F)F)nc2ccccc21 label_class=inactive
compound=CN1CCN(C(=O)C2=C[C@@H](c3csc4ccccc34)C[C@@H](OCc3ccc(CO)cc3)O2)CC1 label_class=inactive
compound=COc1ccccc1NC(=O)c1c([N+](=O)[O-])c(C(C)(C)C)nn1C label_class=inactive
compound="COC(=O)C1C2C=CC3(CN(C(C)c4ccc(OC)cc4)C(=O)C13)O2 (stereo unspecified)" label_class=active
compound=CC(C)(C)NC(=O)NC(=O)COC(=O)Cn1c(C(F)(F)F)nc2ccccc21 label_class=active
compound="CCC(C(=O)NCc1ccco1)N(C(=O)CNS(=O)(=O)c1ccc(C)cc1)c1ccccc1F (stereo unspecified)" label_class=active
compound="CCCCS(=O)(=O)N1CCCC(C(=O)NCCc2ccccc2)C1 (stereo unspecified)" label_class=inactive
compound=O=C(Nc1cccc(C(=O)O)c1)/C(=C\c1ccco1)NC(=O)c1ccccc1 label_class=inactive
compound=Cc1ccc(S(=O)(=O)N2CCc3c2cc([N+](=O)[O-])cc3[N+](=O)[O-])cc1 label_class=inactive
compound=Cc1ccc(C(=O)Nc2onc(C)c2C#N)cc1 label_class=inactive
compound=COc1ccc(Cc2c(Cl)ncnc2Cl)cc1 label_class=active
compound="O=C1CC(c2ccc3c(c2)OCCO3)Oc2ccc([N+](=O)[O-])cc21 (stereo unspecified)" label_class=active
compound=COc1ccccc1CN1CCN(Cc2nc(Cc3ccccc3)no2)CC1 label_class=inactive
compound="CCOC(=O)C1[C@H]2C(=O)N(C(C)c3ccc(OC)cc3)C[C@]23C=C[C@H]1O3 (stereo partly specified)" label_class=inactive
compound=COc1ccc(Cc2c(C)nc(N)nc2Cl)cc1 label_class=inactive
compound=CC1(C)CC(=O)C=C(Nc2ccc(F)cc2)C1 label_class=inactive
compound=Cc1ccc(N2CCN(S(=O)(=O)N3CCCCCC3)CC2)cc1Cl label_class=inactive
compound=Cc1ccc(OCC(=O)Nc2ccc(N3CCN(S(C)(=O)=O)CC3)cc2)cc1 label_class=inactive
compound="COc1ccc(C(C)N2CC34C=CC(O3)C(C(=O)OCC(C)C)C4C2=O)cc1 (stereo unspecified)" label_class=inactive
compound=COc1ccc(Nc2c3c(nc4ccccc24)CCC3)cc1 label_class=inactive
compound=COc1ccc(Nc2c3c(nc4ccc(C)cc24)CCC3)cc1 label_class=active
compound=CC1(C)CC(=O)C=C(NCCc2ccccc2)C1 label_class=inactive
compound=CCCN(CC(=O)Nc1ccccc1OC)C(=O)CCC(=O)c1ccc(F)cc1 label_class=active
compound=COc1ccc(NC2=NC3(CCCCC3)N=C(N)N2)cc1 label_class=inactive
compound=Cc1ccc2nc3c(c(Nc4ccccc4)c2c1)CCC3 label_class=inactive
compound="CC(OC(=O)c1nsc(Cl)c1Cl)C(=O)NCc1cccs1 (stereo unspecified)" label_class=active
compound=CC(C)c1ccc(/C=N/NC(=O)CC(=O)NC2CCCCC2)cc1 label_class=inactive
compound="CCS(=O)(=O)N1CCCC(C(=O)NCCc2ccccc2)C1 (stereo unspecified)" label_class=active
compound=COCCSc1nnc(NC(=O)C(C)(C)C)s1 label_class=inactive
compound=Cc1ccc(-c2nnc(SCC#N)n2N)cc1 label_class=inactive
compound=CCOC(=O)c1c(NC(=O)COC(=O)Cn2c(C(F)(F)F)nc3ccccc32)sc(C)c1C label_class=inactive

###

Assay: qHTS Assay for Lipid Storage Modulators in Drosophila S3 Cells
Conditions: BODIPY lipid droplet fluorescence, 18-24 h, cells fed with added oleic acid; series mostly up to 46.1 µM
About 2,100 (0.66%) of roughly 320,000 compounds were called active. About 53% were inconclusive and are not listed. Calls come from the whole dose curve; as a rule, active = well fitted inhibition curve with a large enough effect in the signal ratio, with a control signal flat (not every such curve was filed as active); inconclusive = small, poorly fitted or top-dose-only effect, or effect the other way, or a change in a side signal; inactive = flat fitted curve, though single readings scatter; the % refers to the signal ratio. The entries come from a sample that favours actives as a whole.
Outcomes: active, inactive

compound=O=C(CCc1nnc2n(CCc3ccccc3)c(=O)c3ccccc3n12)NCCCN1CCCCC1 label_class=inactive
compound="Cc1ccc(N2CC(C(=O)NCCS(=O)(=O)N3CCN(c4ccc(F)cc4)CC3)CC2=O)cc1 (stereo not given)" label_class=active
compound=COCCn1c(Cc2ccccc2)nnc1SCC(=O)Nc1cc(C)on1 label_class=inactive
compound=C[C@@H](NC(=O)c1nc[nH]c1C(=O)N[C@@H](Cc1ccccc1)C(=O)OCc1ccccc1)c1ccccc1 label_class=inactive
compound="CCOC(=O)c1c(-c2ccc(F)cc2)csc1NC(=O)C1CCCO1 (stereo not given)" label_class=inactive
compound=CCCCN1C(=O)/C(=c2\sc3nc(=O)c(-c4ccccc4)nn3c2=O)c2ccccc21 label_class=inactive
compound=CC(=O)N1CCC(N2CCN(c3ccccc3F)CC2)CC1 label_class=inactive
compound="O=C(CC1C(=O)NCCN1Cc1c(F)cccc1Cl)NCCCn1ccnc1 (stereo not given)" label_class=inactive
compound=C[C@H](NC(=O)c1nc[nH]c1C(=O)N(C)Cc1ccccc1)C(=O)OC(C)(C)C label_class=active
compound=COc1ccc(NC(C)=[N+](C)CCNS(=O)(=O)c2ccc(Cl)cc2)cc1 label_class=inactive
compound=Cc1ccc(C)c(CN2CCC(CNC(=O)Nc3ccc(F)c(Cl)c3)CC2)c1 label_class=inactive
compound="O=C(NCCS(=O)(=O)N1CCN(c2ccccc2)CC1)C1CC(=O)N(c2ccc(F)cc2)C1 (stereo not given)" label_class=inactive
compound=O=C(c1cccc(COc2cccc3ccccc23)c1)N1CCCC1 label_class=inactive
compound=O=C(N[C@@H](Cc1ccccc1)C(=O)OCc1ccccc1)c1nc[nH]c1C(=O)NC(c1ccccc1)c1ccccc1 label_class=inactive
compound=Cc1ccc2c(n1)CC(C)(C)C/C2=N\O label_class=inactive
compound=Cc1cccc(NC(=O)C2CCN(S(=O)(=O)c3cccs3)CC2)n1 label_class=inactive
compound=COCCNC(=O)CCCn1c(=O)c2cc(OC)c(OC)cc2n(CC(=O)c2ccc(Cl)cc2)c1=O label_class=inactive
compound=CCCCn1c(CN2CCN(c3cccc(Cl)c3)CC2)nc2c1c(=O)n(C)c(=O)n2C label_class=inactive
compound=CC(/C=C/c1ccccc1)=N/NC(=O)c1cnccn1 label_class=inactive
compound=O=C(O)CCC(=O)N1CCc2cc(S(=O)(=O)NCc3ccc(Cl)cc3)ccc21 label_class=inactive
compound=CCSc1nnc(NC(=O)Nc2cccc(C)c2)s1 label_class=inactive
compound=CCOC(=O)c1ccc(NC(=O)c2nc[nH]c2C(=O)N[C@@H](Cc2ccccc2)C(=O)OC(C)(C)C)cc1 label_class=active
compound=C[C@H](NC(=O)c1nc[nH]c1C(=O)NCc1ccccc1)C(=O)OC(C)(C)C label_class=inactive
compound=Cc1ccc(C)c(CN2CCC(CNC(=O)Nc3cccc(Cl)c3C)CC2)c1 label_class=active
compound=C[C@H](NC(=O)c1nc[nH]c1C(=O)N[C@@H](Cc1ccccc1)C(=O)OC(C)(C)C)C(=O)OC(C)(C)C label_class=inactive
compound=CCOC(=O)c1ccc(NC(=O)c2nc[nH]c2C(=O)N2CCc3ccccc3C2)cc1 label_class=inactive
compound=CC(C)C[C@H](NC(=O)c1nc[nH]c1C(=O)N(C)Cc1ccccc1)C(=O)OC(C)(C)C label_class=inactive
compound=Cc1cccc2cc3c(N)c(C(=O)Nc4ccc(N5CCOCC5)cc4)sc3nc12 label_class=inactive
compound=CCCCn1c(CN2CCN(c3ccc(F)cc3)CC2)nc2c1c(=O)n(C)c(=O)n2C label_class=inactive
compound=Nc1c(C(=O)Nc2ccc(S(=O)(=O)N3CCCC3)cc2)sc2nc3cc4c(cc3cc12)CCC4 label_class=inactive
compound="O=C(Nc1ncc(Cc2cccc(Cl)c2)s1)C1CCCO1 (stereo not given)" label_class=inactive
compound=CCN(CC)c1ccc(C(=O)OCC(=O)Nc2cc3oc4ccccc4c3cc2OC)cc1 label_class=inactive
compound="CCOC(=O)C1=C(C)N=C2SCCC(=O)N2C1c1cccs1 (stereo not given)" label_class=inactive
compound=O=Cc1ccc(OCC(=O)Nc2ccccc2-c2ccccc2)cc1 label_class=inactive
compound=CCOC(=O)c1ccc(NC(=O)c2nc[nH]c2C(=O)N[C@@H](CC(C)C)C(=O)OC(C)(C)C)cc1 label_class=inactive
compound=O=C(NC1=NCCS1)c1ccccc1Cl label_class=inactive
compound="Cc1cc(C)nc(OC(C(=O)O)C(OCC(C)C)(c2ccccc2)c2ccccc2)n1 (stereo not given)" label_class=active
compound="CCC(C)COC(c1ccccc1)(c1ccccc1)C(Oc1nc(C)cc(C)n1)C(=O)O (stereo not given)" label_class=inactive
compound="O=C(Nc1ncc(Cc2cccc(C(F)(F)F)c2)s1)C1CCCO1 (stereo not given)" label_class=inactive
compound=O=C(N[C@@H](Cc1ccccc1)C(=O)OCc1ccccc1)c1nc[nH]c1C(=O)N[C@@H](Cc1ccccc1)C(=O)OCc1ccccc1 label_class=active

Recorded values, source PubChem BioAssay AID2685.
